This collection of values is drawn from ChEMBL document CHEMBL5723379.

# SYSTEM: Sodium/hydrogen exchanger 1 (Homo sapiens)
# Sequence (P19634 whole entry): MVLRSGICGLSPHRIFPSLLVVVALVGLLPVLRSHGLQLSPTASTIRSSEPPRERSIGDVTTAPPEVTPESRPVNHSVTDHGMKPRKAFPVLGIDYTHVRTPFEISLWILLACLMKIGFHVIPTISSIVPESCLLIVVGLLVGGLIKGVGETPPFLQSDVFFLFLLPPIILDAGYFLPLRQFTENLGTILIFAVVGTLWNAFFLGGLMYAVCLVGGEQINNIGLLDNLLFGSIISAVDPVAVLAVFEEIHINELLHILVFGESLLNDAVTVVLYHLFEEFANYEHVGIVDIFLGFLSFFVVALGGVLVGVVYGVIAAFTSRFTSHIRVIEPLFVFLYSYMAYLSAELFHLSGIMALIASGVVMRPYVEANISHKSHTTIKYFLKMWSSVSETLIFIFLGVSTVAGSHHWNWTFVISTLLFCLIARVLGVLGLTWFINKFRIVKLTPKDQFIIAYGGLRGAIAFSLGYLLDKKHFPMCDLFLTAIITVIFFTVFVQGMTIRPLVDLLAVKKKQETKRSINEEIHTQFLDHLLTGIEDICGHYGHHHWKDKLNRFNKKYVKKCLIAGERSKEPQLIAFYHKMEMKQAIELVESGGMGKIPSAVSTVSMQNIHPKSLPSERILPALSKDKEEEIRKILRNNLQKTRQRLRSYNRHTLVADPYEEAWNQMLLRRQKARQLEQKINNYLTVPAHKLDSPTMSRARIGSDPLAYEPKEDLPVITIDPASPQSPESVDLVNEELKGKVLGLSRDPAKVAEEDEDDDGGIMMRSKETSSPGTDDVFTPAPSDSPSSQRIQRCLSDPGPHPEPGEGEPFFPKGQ
# PROTOCOL: Affinity On-target Cellular interaction: ([Na+]uptake assay, PS-120 fibroblasts) EUB0002781aCl SLC9A1
ASSAY_READOUT: pIC50
By convention, pIC50 is the negative base-10 log of a molar concentration.

Sample N=C(N)NC(=O)c1cnn(-c2cccc3ncccc23)c1C1CC1 — what was its pIC50?
7.85

* * *

# SYSTEM: Nuclear receptor ROR-beta (Homo sapiens, UniProt Q92753)
# Sequence (Q92753 whole entry): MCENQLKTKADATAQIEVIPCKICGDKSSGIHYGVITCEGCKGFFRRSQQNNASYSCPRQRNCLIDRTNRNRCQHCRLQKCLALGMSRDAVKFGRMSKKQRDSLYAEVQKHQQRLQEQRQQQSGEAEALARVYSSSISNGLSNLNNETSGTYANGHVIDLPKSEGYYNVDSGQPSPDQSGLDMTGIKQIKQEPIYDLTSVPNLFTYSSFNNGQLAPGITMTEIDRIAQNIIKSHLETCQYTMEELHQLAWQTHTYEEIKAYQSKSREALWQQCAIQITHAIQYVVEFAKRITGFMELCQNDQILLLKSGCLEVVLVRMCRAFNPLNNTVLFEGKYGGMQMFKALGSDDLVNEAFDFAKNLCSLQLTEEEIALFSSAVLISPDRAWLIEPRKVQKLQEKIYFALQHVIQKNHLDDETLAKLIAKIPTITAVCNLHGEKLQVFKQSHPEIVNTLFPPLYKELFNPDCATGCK
# PROTOCOL: Affinity On-target Cellular interaction: (Reporter gene assay (HEK293T cells)) EUB0001157a RORB
# Assay type: functional, cell-based, HEK-293T
# Set-up: mode of action Inverse Agonist, recommended concentration 10 uM
ASSAY_READOUT: IC50

Sample O=S(=O)(Nc1ccc(C(O)(C(F)(F)F)C(F)(F)F)cc1)c1cccs1 — what was its IC50?
1.5 µM

* * *

# SYSTEM: UniProt P35398
# Sequence (P35398 whole entry): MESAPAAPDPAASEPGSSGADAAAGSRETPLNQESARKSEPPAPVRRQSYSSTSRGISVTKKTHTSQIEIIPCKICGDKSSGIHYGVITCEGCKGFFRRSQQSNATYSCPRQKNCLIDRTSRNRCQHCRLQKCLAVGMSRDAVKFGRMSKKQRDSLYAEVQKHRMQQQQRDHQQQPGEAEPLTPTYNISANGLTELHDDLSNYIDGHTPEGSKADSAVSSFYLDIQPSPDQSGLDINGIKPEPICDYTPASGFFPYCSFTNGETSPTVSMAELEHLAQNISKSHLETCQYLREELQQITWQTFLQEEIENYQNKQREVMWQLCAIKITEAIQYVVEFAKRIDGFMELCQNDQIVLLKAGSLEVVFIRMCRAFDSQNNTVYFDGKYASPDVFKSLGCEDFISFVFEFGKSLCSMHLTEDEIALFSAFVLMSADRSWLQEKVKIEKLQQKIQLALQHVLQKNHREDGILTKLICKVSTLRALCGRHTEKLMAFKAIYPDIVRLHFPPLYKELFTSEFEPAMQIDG
# PROTOCOL: Affinity On-target Cellular interaction: (Reporter gene assay (HEK293T cells)) EUB0001157a RORA
# Format: functional, cell-based, HEK-293T
# Set-up: mode of action Inverse Agonist, recommended concentration 10 uM
ASSAY_READOUT: IC50 (nM)
Return type: number; implicit unit nM.

Sample O=S(=O)(Nc1ccc(C(O)(C(F)(F)F)C(F)(F)F)cc1)c1cccs1 — what was its IC50?
500

* * *

# SYSTEM: Sodium-dependent neutral amino acid transporter B(0)AT1 (Homo sapiens)
# Sequence (Q695T7 whole entry): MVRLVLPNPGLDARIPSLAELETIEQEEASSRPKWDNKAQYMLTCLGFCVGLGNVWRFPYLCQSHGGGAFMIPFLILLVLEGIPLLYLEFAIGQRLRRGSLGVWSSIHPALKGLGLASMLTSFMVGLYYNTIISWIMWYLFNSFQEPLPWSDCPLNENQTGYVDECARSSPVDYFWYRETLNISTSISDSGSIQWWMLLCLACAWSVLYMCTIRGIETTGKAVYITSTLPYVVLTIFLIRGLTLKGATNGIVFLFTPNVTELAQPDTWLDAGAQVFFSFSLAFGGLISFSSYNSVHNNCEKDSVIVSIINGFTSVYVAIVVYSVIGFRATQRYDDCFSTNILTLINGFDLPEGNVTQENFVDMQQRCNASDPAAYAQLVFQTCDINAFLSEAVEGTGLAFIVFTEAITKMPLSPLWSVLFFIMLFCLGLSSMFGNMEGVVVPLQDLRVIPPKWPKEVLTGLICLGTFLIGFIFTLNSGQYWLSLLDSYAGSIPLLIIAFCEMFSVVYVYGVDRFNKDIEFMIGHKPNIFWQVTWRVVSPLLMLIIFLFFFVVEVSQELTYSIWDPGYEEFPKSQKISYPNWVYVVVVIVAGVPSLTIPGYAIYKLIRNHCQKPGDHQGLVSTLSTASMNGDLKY
# PROTOCOL: Affinity On-target Cellular interaction: (Stable isotope uptake assay, MDCK cells) EUB0002537a SLC6A19
# Type: functional, cell-based
# Set-up: mode of action Inhibitor, recommended concentration 1 uM
ASSAY_READOUT: IC50 (nM)
Return type: number; implicit unit nM.

Sample CCNC(=O)/C=C/c1cccc(Br)c1 [CINROMIDE] — what was its IC50?
370
